molecular target: α7 nicotinic ACh receptor ion channel expressed in mammalian HEK 293 cells (Rattus norvegicus); construct: expressed in transfected cells; assay: Ca2+-sensitive fluorescence-based assay for α7 nicotinic acetylcholine receptor channel function (FLIPR), agonist activity; type: cell-based; conditions: FLIPR α7 (EC50, nM), HEK 293 cells, Ca2+ flux, agonist potency
Sequence (Q05941 23-502): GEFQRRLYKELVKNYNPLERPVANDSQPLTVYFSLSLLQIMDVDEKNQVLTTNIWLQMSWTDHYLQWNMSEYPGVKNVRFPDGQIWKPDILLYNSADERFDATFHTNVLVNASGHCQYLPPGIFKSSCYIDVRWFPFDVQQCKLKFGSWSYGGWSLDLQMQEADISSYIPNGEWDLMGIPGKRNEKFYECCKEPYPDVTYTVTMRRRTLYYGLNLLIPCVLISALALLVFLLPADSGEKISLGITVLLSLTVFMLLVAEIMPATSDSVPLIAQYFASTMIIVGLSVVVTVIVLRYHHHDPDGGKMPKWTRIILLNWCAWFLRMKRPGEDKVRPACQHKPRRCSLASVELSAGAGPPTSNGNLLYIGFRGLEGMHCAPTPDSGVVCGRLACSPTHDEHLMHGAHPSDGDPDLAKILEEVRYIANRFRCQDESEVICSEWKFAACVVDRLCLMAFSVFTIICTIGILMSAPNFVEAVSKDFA
Property: EC50; scope: individual molecules
Express your answer in nM, writing the number without its unit.

FC(F)(F)c1ccc2c(c1)nc1n2C[C@]2(CN3CCC2CC3)O1 (single isomer, unassigned) : 1330
COc1ccc(-c2cccc3c2nc2n3C[C@@]3(CN4CCC3CC4)O2)cc1 (single isomer, unassigned) [Example 12b] : 28
c1ccc2c(c1)nc1n2C[C@@]2(CN3CCC2CC3)O1 (single isomer, unassigned) : 13.6

Task: Look up EC50: c1ccc2c(c1)nc1n2C[C@]2(CN3CCC2CC3)O1 (single isomer, unassigned)
Output: 6660

Task: Could you do the same for c1ccc(-c2cn3c(n2)O[C@@]2(CN4CCC2CC4)C3)cc1 [Example 21a] , please?
Output: 10

Task: Could you do the same for FC(F)(F)c1cccc2c1nc1n2C[C@@]2(CN3CCC2CC3)O1 (single isomer, unassigned) [Example 11b] , please?
Output: 22
